# experimental target: recombinant human D2(short) dopamine receptor (Homo sapiens)
# assay remarks: Dopamine D2S receptor binding assay ([3H]spiperone, CHO cell membranes)
# experimental parameters: human D2S receptors in CHO cells, 0.2 nM [3H]spiperone, mean ± SEM; read-out: Affinity Ki (D2)
pKi: −log10 of the molar value.
Returns one of class 1 or class 0; class 1 when pKi is >= 6.

Below are worked cases with known answers.
CCCN(CCCCNC(=O)C=Cc1ccc(Cl)cc1Cl)C1CCc2ncsc2C1 (stereo not drawn) [Compound 17]    class 1
CCCN(CCCCNC(=O)NC1Cc2ccccc2C1)C1CCc2ncsc2C1 (stereo not drawn) [Compound 60]    class 0
CCCN(CCCCNC(=O)N1CCC(c2ccccc2)CC1)C1CCc2ncsc2C1 (stereo not drawn) [Compound 64]    class 0

Enquiry: Hello, I need to know if CCN(CCNC(=O)c1ccc2ccccc2c1)C1CCc2ncsc2C1 (stereo not drawn) [Compound 32] has measured pKi not below 6. Thanks!
Return: class 0

Enquiry: // next record O=C(NCCCCNC1CCc2ncsc2C1)c1ccc2ccccc2c1 (stereo not drawn) [Compound 2]
Return: class 0

Enquiry: // next record CCCN(CCCCNC(=O)N1CCc2ccccc2C1)C1CCc2ncsc2C1 (stereo not drawn) [Compound 24]
Return: class 0

====

Field: melting point. Provide a value for each of the compounds that follow.
Structures can show the parent of a compound that is named as a salt.
One number for each entry, in °C.

CCCN(CCCCNC(=O)NC1Cc2ccccc2C1)C1CCc2ncsc2C1 (centres unmarked) (as salt: salt)    93
CCCN(CCCCNC(=O)N1CC=C(c2ccccc2)CC1)C1CCc2ncsc2C1 (centres unmarked) (as salt: salt)    115

Batch request: melting point per item, same order as input.
1. CCN(CCCCNC(=O)c1ccc2ncsc2c1)C1CCc2ncsc2C1 (centres unmarked) (as salt: salt)
2. CCCN(CCOc1ccccc1)C1CCc2ncsc2C1 (centres unmarked) (as salt: salt)

Return:
1. 106.5
2. 136

Batch request: melting point per item, same order as input.
1. CN(CCCCNC(=O)c1ccc2ccccc2c1)C1CCc2ncsc2C1 (centres unmarked) (as salt: salt)
2. C=CCN(CCCCNC(=O)c1ccc2ccccc2c1)C1CCc2ncsc2C1 (centres unmarked) (as salt: salt)
3. CC#CCN(CCCCNC(=O)c1ccc2ccccc2c1)C1CCc2ncsc2C1 (centres unmarked) (as salt: salt)
4. CCCN(CCCCN1CCN(c2cccc(Cl)c2Cl)CC1)C1CCc2ncsc2C1 (centres unmarked) (as salt: salt)

Return:
[122, 128, 147, 150]

Batch request: melting point per item, same order as input.
1. CCCN(CCCCC(=O)NC12CC3CC(CC(C3)C1)C2)C1CCc2ncsc2C1 (centres unmarked) (as salt: salt)
2. CCN(CCN1CCc2ccccc2C1)C1CCc2ncsc2C1 (centres unmarked) (as salt: salt)
3. CCCN(CCCCC(=O)NC1Cc2ccccc2C1)C1CCc2ncsc2C1 (centres unmarked) (as salt: salt)
4. CCCN(CCCCNC(=O)N1CCN(c2ccccc2)CC1)C1CCc2ncsc2C1 (centres unmarked) (as salt: salt)
5. CCCN(CCCCNC(=O)N1CCc2ccccc2C1)C1CCc2ncsc2C1 (centres unmarked) (as salt: salt)
6. CCCN(CCCCNC(=O)C1CCCCC1)C1CCc2ncsc2C1 (centres unmarked) (as salt: salt)
7. CCN(CCN(CC)C1CCc2ncsc2C1)C1CCc2ncsc2C1 (centres unmarked) (as salt: salt)

Return:
[145, 193, 60, 120, 125, 130, 83]

Batch request: melting point per item, same order as input.
1. CCCN(CCN1CCN(C(=O)c2ccccc2)CC1)C1CCc2ncsc2C1 (centres unmarked) (as salt: salt)
2. CCCN(CCCCNC(=O)C1Cc2ccccc2C1)C1CCc2ncsc2C1 (centres unmarked) (as salt: salt)

Return:
1. 186
2. 119

Batch request: melting point per item, same order as input.
1. CCN(CCCN1CCN(c2ccccc2OC)CC1)C1CCc2ncsc2C1 (centres unmarked) (as salt: salt)
2. CCN(CCCCN1CCN(c2ccccc2OC)CC1)C1CCc2ncsc2C1 (centres unmarked) (as salt: salt)
3. CCCN(CCCCNC(=O)C12CC3CC(CC(C3)C1)C2)C1CCc2ncsc2C1 (centres unmarked) (as salt: salt)
4. CCN(CCCCNC(=O)c1ccc2ccccc2c1)C1CCc2ncsc2C1 (centres unmarked) (as salt: salt)
5. C#CCN(CCCCNC(=O)c1ccc2ccccc2c1)C1CCc2ncsc2C1 (centres unmarked) (as salt: salt)

Return:
[64, 164, 114, 120, 126]

Batch request: melting point per item, same order as input.
1. CCCN(CCCCC(=O)N1CCN(c2ccccc2)CC1)C1CCc2ncsc2C1 (centres unmarked) (as salt: salt)
2. CCCN(CCCCNC(=O)NC1CCCCC1)C1CCc2ncsc2C1 (centres unmarked) (as salt: salt)
3. CCCN(CCCCNC(=O)c1ccccc1)C1CCc2ncsc2C1 (centres unmarked) (as salt: salt)
4. CCCN(CCN1CCN(c2cccc(Cl)c2Cl)CC1)C1CCc2ncsc2C1 (centres unmarked)
5. CN(CCCCNC(=O)c1cc2ccccc2s1)C1CCc2ncsc2C1 (centres unmarked) (as salt: salt)

Return:
[75, 149, 152, 103.5, 105]

Batch request: melting point per item, same order as input.
1. CCCN(Cc1ccc(C(=O)N(CCC)C2CCc3ncsc3C2)cc1)C1CCc2ncsc2C1 (centres unmarked)
2. CCCN(CCCCNC(=O)N1Cc2ccccc2C1)C1CCc2ncsc2C1 (centres unmarked) (as salt: salt)
3. CCN(CCCCNC(=O)c1cc2ccccc2s1)C1CCc2ncsc2C1 (centres unmarked) (as salt: salt)

Return:
[85, 118, 103]

Batch request: melting point per item, same order as input.
1. CCCN(CCCCC(=O)Nc1ccc2ccccc2c1)C1CCc2ncsc2C1 (centres unmarked) (as salt: salt)
2. CCCN(CCCCNC(=O)N1CCCCC1)C1CCc2ncsc2C1 (centres unmarked) (as salt: salt)

Return:
[85, 71]

====

Field: Ki. Provide a value for each of the molecules that follow.
# experimental target: human dopamine D3 receptors (Homo sapiens)
# Sequence (P35462 whole entry): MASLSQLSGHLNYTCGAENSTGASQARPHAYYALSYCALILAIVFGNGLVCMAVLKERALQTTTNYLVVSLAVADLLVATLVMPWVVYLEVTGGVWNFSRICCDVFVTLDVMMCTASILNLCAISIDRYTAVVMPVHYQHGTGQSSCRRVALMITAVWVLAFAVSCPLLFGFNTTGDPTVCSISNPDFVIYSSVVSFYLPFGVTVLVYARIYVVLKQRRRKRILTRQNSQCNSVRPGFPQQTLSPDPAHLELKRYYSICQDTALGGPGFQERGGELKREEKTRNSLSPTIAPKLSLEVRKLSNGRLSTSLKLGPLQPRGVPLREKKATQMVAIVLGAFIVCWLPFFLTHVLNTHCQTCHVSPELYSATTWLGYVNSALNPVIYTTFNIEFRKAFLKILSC
# assay remarks: Dopamine D3 receptor binding assay ([3H]spiperone, CHO cell membranes)
# experimental parameters: human D3 receptors in CHO cells, 0.2 nM [3H]spiperone, mean ± SEM; read-out: Affinity Ki (D3)
One number for each entry, in nM.

Look over these answered cases.
CCCN(CCCCNC(=O)C=Cc1ccccc1)C1CCc2ncsc2C1 (stereo not drawn)    8.11
CCCN(CCCCNC(=O)N1CCc2ccccc2C1)C1CCc2ncsc2C1 (stereo not drawn)    3.95
CCCN(CCOc1ccccc1)C1CCc2ncsc2C1 (stereo not drawn)    51

Batch request: Ki per item, same order as input.
1. CCCN(CCN1CCN(C(=O)c2cccc3ccccc23)CC1)C1CCc2ncsc2C1 (stereo not drawn)
2. C=CCN(CCCCNC(=O)c1ccc2ccccc2c1)C1CCc2ncsc2C1 (stereo not drawn)
3. O=C(NCCCCNC1CCc2ncsc2C1)c1cc2ccccc2s1 (stereo not drawn)
4. O=C(NCCCCNC1CCc2ncsc2C1)c1nc2ccccc2s1 (stereo not drawn)

Return:
1: 12.9; 2: 0.95; 3: 292; 4: 1900

Batch request: Ki per item, same order as input.
1. CCCN(CCN1CCN(C(=O)c2ccccc2)CC1)C1CCc2ncsc2C1 (stereo not drawn)
2. CCN(CCN(CC)C1CCc2ncsc2C1)C1CCc2ncsc2C1 (stereo not drawn)

Return:
1. 27.4
2. 22.7

====

# experimental target: recombinant human D2(short) dopamine receptor (Homo sapiens, UniProt P14416)
# Sequence (P14416 1-414 isoform P14416-2): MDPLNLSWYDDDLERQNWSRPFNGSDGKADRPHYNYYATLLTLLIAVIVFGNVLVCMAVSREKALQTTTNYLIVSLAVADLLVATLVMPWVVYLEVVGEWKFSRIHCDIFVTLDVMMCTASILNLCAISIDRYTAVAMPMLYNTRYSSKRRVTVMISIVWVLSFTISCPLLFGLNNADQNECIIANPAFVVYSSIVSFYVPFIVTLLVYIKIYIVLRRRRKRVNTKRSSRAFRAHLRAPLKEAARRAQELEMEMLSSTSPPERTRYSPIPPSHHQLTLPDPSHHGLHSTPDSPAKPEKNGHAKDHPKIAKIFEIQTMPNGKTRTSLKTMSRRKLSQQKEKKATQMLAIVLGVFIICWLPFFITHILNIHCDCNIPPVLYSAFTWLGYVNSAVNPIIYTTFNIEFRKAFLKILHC
# assay remarks: Dopamine D2S receptor binding assay ([3H]spiperone, CHO cell membranes)
# experimental parameters: human D2S receptors in CHO cells, 0.2 nM [3H]spiperone, mean ± SEM; read-out: Affinity Ki (D2)
Field: Ki. Provide a value for each of the compounds that follow.
One number for each entry, in nM.

C=CCN(CCCCNC(=O)c1ccc2ccccc2c1)C1CCc2ncsc2C1 (stereo not drawn)    459
CCCN(Cc1ccc(C(=O)N(CCC)C2CCc3ncsc3C2)cc1)C1CCc2ncsc2C1 (stereo not drawn)    16700
CCN(CCCCNC(=O)c1ccc2ccccc2c1)C1CCc2ncsc2C1 (stereo not drawn)    1570

Batch request: Ki per item, same order as input.
1. CCCN(CCCCNC(=O)C=Cc1ccc(F)cc1)C1CCc2ncsc2C1 (stereo not drawn)
2. CCCN(CCCCC(=O)N1CCN(c2ccccc2)CC1)C1CCc2ncsc2C1 (stereo not drawn)
3. CCCN(CCCCNC(=O)c1ccc2ccccc2c1)C1CCc2ncsc2C1 (stereo not drawn)
4. CCCN(CCCCNC(=O)C12CC3CC(CC(C3)C1)C2)C1CCc2ncsc2C1 (stereo not drawn)
5. CCCN(CCCCNC(=O)N1CCCCC1)C1CCc2ncsc2C1 (stereo not drawn)

Return:
1. 842
2. 4130
3. 873
4. 2740
5. 7440

Enquiry: // returns reported Ki for input CN(CCCCNC(=O)c1ccc2ccccc2c1)C1CCc2ncsc2C1 (stereo not drawn)
Return: 3820

Each recorded value in this set is attributed to patent US8389555B2.
